Could you please report measured IC50 for the items listed next?
Tested on: Phosphorylated Ribosomal Protein S6 (RPS6)
Assay: THP-1 RPS6 ELISA Assay
Type: cell-based, Human
Settings: THP-1 cells; read-out: PI3Kγ_THP1_RPS6_ELISA IC50
Structures can show the parent of a compound that is named as a salt.

Below: 5 compounds and their reported IC50.
- Cc1ccc(S(=O)(=O)NCC2(F)COC2)cc1-c1cnc2c(N)nc(C(F)(F)F)nn12 [Example 315, trifluoroacetate salt]: < 100 nM
- Cc1ccc(S(=O)(=O)NC2CCOCC2)cc1-c1cnc2c(N)ncnn12 [Example 68]: 500 to 1000 nM
- Cc1ccc(S(=O)(=O)N[C@H]2CC[C@](O)(C(F)(F)F)CC2)cc1-c1cnc2c(N)ncnn12 [Example 124]: 100 to 500 nM
- N#CC12CCC(NS(=O)(=O)c3cccc(-c4cnc5c(N)nc(C(F)(F)F)nn45)c3)(C1)C2 [Example 415, trifluoroacetate salt]: < 100 nM
- N#CC12CCC(NS(=O)(=O)c3cc(-c4cnc5c(N)nc(C(F)(F)F)nn45)ccc3Cl)(C1)C2 [Example 414]: 100 to 500 nM

Give IC50 for each of the items listed below.
1. Cc1nc(N)c2ncc(-c3cc(S(=O)(=O)NC45CC(C#N)(C4)C5)ccc3C)n2n1 [Example 270, trifluoroacetate salt]
2. Cc1cc(C)c(S(=O)(=O)NC23CCC(CO)(C2)C3)cc1-c1cnc2c(N)ncnn12 [Example 363]
3. C[C@]1(O)CC[C@H](NS(=O)(=O)c2cc(-c3cnc4c(N)nc(-c5ccc(CO)cc5F)cn34)ccc2F)CC1 [Example 423]

OUT:
["< 100 nM", "100 to 500 nM", "< 100 nM"]

Each recorded value in this set is attributed to patent US10479795B2.
